The reported measurements were obtained from the Human Domainome abundance scans (Beltran et al. 2025).

B1: Lysine-specific demethylase 2B, residues 656 to 722; numbered along this chain, Q8NHM5 (parent)
chain: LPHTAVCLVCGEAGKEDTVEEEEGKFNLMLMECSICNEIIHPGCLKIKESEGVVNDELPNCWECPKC

- Variants of: B1
- Assay Overview: abundance fitness (aPCA) (normalised: wild type 0, dead -1); higher = more abundant; growth selection in yeast, the domain comes from the species named
- Particulars: Homo sapiens
Recorded Endpoint: abundance fitness
Give the value as a plain number.

Indicate the recorded abundance fitness value for this variant: E22H
-0.099

Indicate the recorded abundance fitness value for this variant: E23W
-0.554

Indicate the recorded abundance fitness value for this variant: L30R
-0.196

Indicate the recorded abundance fitness value for this variant: V9R
-0.297

Indicate the recorded abundance fitness value for this variant: K66L
-0.705
